# Tested target: hGPR120 (Homo sapiens)
# Sequence (Q5NUL3 whole entry): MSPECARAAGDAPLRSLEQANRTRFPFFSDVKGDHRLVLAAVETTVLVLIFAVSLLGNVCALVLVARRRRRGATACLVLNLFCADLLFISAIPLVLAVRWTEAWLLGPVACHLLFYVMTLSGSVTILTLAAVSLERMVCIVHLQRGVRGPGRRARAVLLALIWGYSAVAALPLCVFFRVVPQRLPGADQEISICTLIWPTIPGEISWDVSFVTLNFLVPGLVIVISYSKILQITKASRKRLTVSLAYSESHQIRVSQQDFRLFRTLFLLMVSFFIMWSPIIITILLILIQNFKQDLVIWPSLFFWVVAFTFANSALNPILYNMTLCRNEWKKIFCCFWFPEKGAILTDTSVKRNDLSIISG
# Assay explanation: Measurement of Activity of GPR120 Agonist (Cell-Based Assay), Calcium 5 dye fluorescence
# Recorded conditions: CHO-K1 cells expressing Ga16 and hGPR120
Metric: EC50

Answered examples (2):
CCCOc1cccc(-c2cc(F)c(N3CCC(CCC(=O)O)CC3)c(F)c2)n1 :: 200 to 2000 nM
CCOc1nc(-c2cc(F)c(N3CCC(CC(=O)O)CC3)c(F)c2)sc1C :: 200 to 2000 nM

-- ask Any idea what its EC50 is? The compound is Cc1cc2cc(Cl)cc(-c3cc(F)c(C(C)CCCC(=O)O)c(F)c3)c2o1 (stereo not drawn)
-- reply 200 to 2000 nM

-- ask Any idea what its EC50 is? The compound is CN(CCCCC(=O)O)c1c(F)cc(-c2cccc(OCC3CC3)n2)cc1F
-- reply < 200 nM

Data origin: patent US11261186B2
